tested on: 991263-137-R1-J2-PDC complex spheroid viability; experiment: Anticancer human tumor 991263-137-R1-J2-PDC patient-derived colon adenocarcinoma cell line growth inhibition [POLQ]; settings: second compound 0.316 µM; first compound 0.1 µM; stronger effect = lower value
Reported viability, T/C values follow for various compounds
Hi! Could you send only the number? It should be in %, unit omitted.

Previously resolved entries follow.
Query: Return value of viability, T/C for input CC[C@@]1(O)C(=O)OCc2c1cc1n(c2=O)Cc2cc3c(CN(C)C)c(O)ccc3nc2-1 + Cc1cccc(N(C)C(=O)C2C(O)CCN2c2nc(C)cc(C(F)(F)F)c2C#N)c1 , no commentary.
Reply: 91.4

Query: Determine its reported viability, T/C: CCc1cc2c(N3CCc4c(cc(Cn5ccnc5)cc4-c4cn(C)nc4C(F)(F)F)C3=O)cc(C)nc2c(OC)n1 + COC1C(OC(N)=O)C(O)C(Oc2ccc3c(O)c(NC(=O)c4ccc(O)c(CC=C(C)C)c4)c(=O)oc3c2C)OC1(C)C
Reply: 113

Query: Look up viability, T/C of Nc1ccn(C2OC(CO)C(O)C2(F)F)c(=O)n1 (stereo not given) + Cc1cccc(N(C)C(=O)C2C(O)CCN2c2nc(C)cc(C(F)(F)F)c2C#N)c1 and report it.
Reply: 70.5

Query: Please look at this compound and report its viability, T/C: COc1cccc2c1C(=O)c1c(O)c3c(c(O)c1C2=O)CC(O)(C(=O)CO)CC3OC1CC(N)C(O)C(C)O1 (stereo not given) + Cc1cccc(N(C)C(=O)C2C(O)CCN2c2nc(C)cc(C(F)(F)F)c2C#N)c1
Reply: 99.4

For the next question, use this compound.
Query: Complete the entry with viability, T/C for CCc1cc2c(N3CCc4c(cc(Cn5ccnc5)cc4-c4cn(C)nc4C(F)(F)F)C3=O)ccnc2c(OC)n1 + Nc1ccc(C#CCN(C(=O)Cc2ncc(C(F)(F)F)cc2C(F)(F)F)c2ccc(F)cc2)nn1
Reply: 99.8

---

system: 991263-137-R1-J2-PDC complex spheroid viability; test: Anticancer human tumor 991263-137-R1-J2-PDC cell line growth inhibition [POLQ]; conditions: second compound 10 µM; first compound 0.1 µM; stronger effect = lower value;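 further: spheroids exposed to compounds for 7 days before readout; 100% = DMSO vehicle control viability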
PARAMETER_MEASURED: viability, T/C (%)
I only need the number, in %, no unit after it.

Solved entries:
Query: Identify viability, T/C associated with the compound CNCc1ccc(-c2[nH]c3cc(F)cc4c3c2CCNC4=O)cc1 + Cc1cccc(N(C)C(=O)C2C(O)CCN2c2nc(C)cc(C(F)(F)F)c2C#N)c1
Reply: 114

Query: Provide viability, T/C value for the following compound: C=CCn1c(=O)c2cnc(Nc3ccc(N4CCN(C)CC4)cc3)nc2n1-c1cccc(C(C)(C)O)n1 + COC1C(OC(N)=O)C(O)C(Oc2ccc3c(O)c(NC(=O)c4ccc(O)c(CC=C(C)C)c4)c(=O)oc3c2C)OC1(C)C
Reply: 92.5

Query: Provide only the value of recorded viability, T/C for COc1cc2cc(C(=O)CCC(=O)O)sc2cc1OC + Nc1ccc(C#CCN(C(=O)Cc2ncc(C(F)(F)F)cc2C(F)(F)F)c2ccc(F)cc2)nn1
Reply: 96.6

Query: Return viability, T/C (reported value) for this compound: CC1COCCN1c1cc(-c2ccnn2C)c2ccnc(-c3ccn[nH]3)c2n1 (stereo not given) + Cc1cccc(N(C)C(=O)C2C(O)CCN2c2nc(C)cc(C(F)(F)F)c2C#N)c1
Reply: 104

Let us examine a further case.
Query: For the compound O=C(Nc1ccc(O)c(NS(=O)(=O)c2ccc(F)cc2)c1)c1ccc(-c2ccccc2)cc1 + COC1C(OC(N)=O)C(O)C(Oc2ccc3c(O)c(NC(=O)c4ccc(O)c(CC=C(C)C)c4)c(=O)oc3c2C)OC1(C)C , give its reported viability, T/C.
Reply: 112
